- System: NCI-H460
- assayExplanation: NCI tumour cell line growth inhibition, 48 h
Active and inactive are the calls of the source. No stated cut-off is given here; in the data, active = GI50 up to about 1.1 µM and inactive = higher.
Pick one: active, inactive

Task item: How was CC/C(Cl)=N\OC(=O)Nc1ccc(F)cc1F classified in this test?
Reply: inactive

Task item: COC(=O)C(Cc1ccc(N(C)C)cc1)(NC(=O)c1ccccc1)P(=O)(OC)OC (stereo not drawn) , same question.
Reply: inactive

Task item: Query CC(=O)Oc1ccc(C(c2ccc(OC(C)=O)cc2)c2ccccn2)cc1 next
Reply: inactive

Task item: Queued: c1ccc(OCc2nnc(CCCCCCCCc3nnc(COc4ccccc4)o3)o2)cc1
Reply: inactive

Task item: Same read-out for O=[N+]([O-])c1cccc2nc3ccccc3c(NCCCCNc3c4ccccc4nc4cccc([N+](=O)[O-])c34)c12 ?
Reply: active

Task item: Check C=CCN(c1cc(OC)c2[nH]cc(C)c2c1[N+](=O)[O-])S(C)(=O)=O too.
Reply: inactive

Task item: Same again, this time with COc1ccc2c(c1)/C(=C\c1c(C)nc3n1CCS3)C(=O)N2
Reply: inactive

Task item: For CC(C)(C)OC(=O)NCC(CNC(=O)OC(C)(C)C)C(N)=O then?
Reply: inactive

###

- System: HOP-62
- assayExplanation: NCI tumour cell line growth inhibition, 48 h
Activity calls are given as the source filed them. Cut-off read from the data, not from the text of the source: active = GI50 up to about 1.1 µM and inactive = higher.
Assign GI50 to each entry below.

Task item: What GI50 value was documented for this molecule, S=C(NCCc1ccccn1)c1nc[nH]c1C(=S)NCCc1ccccn1 ?
Reply: 37.1 µM (inactive)

Task item: What do you have for NC(=O)c1ccccc1[N+](=O)[O-] ?
Reply: > 100 µM (inactive)

Task item: Proceed to COc1cc([C@@H]2c3cc4c(cc3[C@@H](NC(=O)c3ccc(N)cc3)C3COC(=O)[C@@H]32)OCO4)cc(OC)c1O (stereo not given in full)
Reply: 0.535 µM (active)

Task item: One more molecule: COc1ccc(/C=C2/C(=O)N(C(=O)c3ccc(Cl)cc3)N=C2C)cc1OC
Reply: > 100 µM (inactive)

Task item: Again, but for COc1ccc2nc(NC(=O)C(=O)CC(=O)c3ccc(Cl)cc3)sc2c1
Reply: > 100 µM (inactive)

###

For each entry below, report its GI50 value.
- Test system: 786-0
- assayExplanation: NCI tumour cell line growth inhibition, 48 h
Active and inactive are the calls of the source. Rule as the data show it: active = GI50 up to about 1.1 µM and inactive = higher.

Task item: # input compound: O=C(O)C(F)(F)C(F)(F)C(F)(F)C(F)(F)C(F)(F)C(F)(F)C(F)(F)C(F)(F)F ; wanted: its GI50
Reply: 83.9 µM (inactive)

Task item: Could you do the same for CSc1nc2c(c(N(C)C)n1)C=Nn1c(nc3ccccc31)S2 , please?
Reply: 65 µM (inactive)

Task item: Next entry: COc1cc([C@@H]2c3cc4c(cc3[C@@H](NC(=O)c3ccc(N)cc3)C3COC(=O)[C@@H]32)OCO4)cc(OC)c1O (stereo not given in full)
Reply: 1.36 µM (inactive)

Task item: Again, but for O=C1C=C/C(=C/[C@H]2SSC=C[C@]23C=CC(=O)C3)C1
Reply: 7.55 µM (inactive)

Task item: Next compound up: COc1ccc2c(c1)c1c(n2CCN(C)C)-c2ccccc2CC1
Reply: 16.1 µM (inactive)

Task item: Also, CN(CC(=O)O)c1ncc2c(n1)C=CCC2 please.
Reply: > 100 µM (inactive)

Task item: Next compound up: CC(=O)OCC1OC(Oc2cc(C)c(O)cc2C/C=C(\C)CC/C=C(\C)CC(=O)CC(C)C)C(O)C(OC(C)=O)C1OC(C)=O (stereo not given)
Reply: 21 µM (inactive)

Task item: Same lookup for COc1ccc(/C=C2/C(=O)N(C(=O)c3ccc(Cl)cc3)N=C2C)cc1OC , please.
Reply: > 100 µM (inactive)

Task item: Likewise for COc1ccc(NC(=O)c2cc(OC)cc(OC)c2)cc1 ?
Reply: > 85.7 µM (inactive)

Task item: Okay, and COC(=O)c1c2c(cc3c1CC1(C3)Cc3ccc4c(c3C1=O)CCC4)CCC2 (stereo not given) ?
Reply: 3.51 µM (inactive)

Task item: Now try CC(C)(C)c1cc(C(O)(C(=O)O)C(=O)O)cc(C(C)(C)C)c1O .
Reply: > 100 µM (inactive)

Task item: Field entry: Nc1nc(N)c2nn(-c3ccc(C(=O)O)cc3)nc2n1
Reply: > 100 µM (inactive)

Task item: Note, next up: O=C1NC(=O)C(CCC(=O)c2ccc3ccccc3c2)C(=O)N1
Reply: > 100 µM (inactive)

Task item: Also check O=C(NCCOC(=O)OCCNC(=O)NC1CCCCC1)NC1CCCCC1
Reply: > 100 µM (inactive)

Task item: Now this one: COC12OCCN(CCO)C1=CC(=O)C1(C)N=NC(C)C12 (stereo not given)
Reply: > 100 µM (inactive)

Task item: Entry to check: CC1CCN(c2nnc(Cl)cc2C(=O)c2ccccc2)CC1
Reply: 41.7 µM (inactive)

Task item: Please give the result for CCCCCCCCCCCCC(Br)C(=O)NCC(N)=O (stereo not given) too.
Reply: 6.85 µM (inactive)

Task item: COc1ccc(C2(CC(C)C)CCNC2)cc1OC (stereo not given) ?
Reply: > 100 µM (inactive)

Task item: Item: CCC(C)C(=O)OC1CC2(C)C(c3ccoc3)OC(=O)CC23OC2(C)OC34C(OC(=O)C(C)C)C3(O)C(OC(=O)C5(C)OC5C)C5(C)CC3(O)C(C)(C5CC(=O)OC)C14O2 (stereo not given)
Reply: > 100 µM (inactive)

Task item: Also O=C(C1OC1c1ccc(Br)cc1O)C12CC3CC(CC(C3)C1)C2 (stereo not given) , if possible.
Reply: 17.6 µM (inactive)

Task item: Could you do the same for CC(C)C1CSC2N1C(=O)C2(OCc1ccccc1)C1CC1 (stereo not given) , please?
Reply: > 100 µM (inactive)

Task item: Moving on to COc1cc(C(N)=O)cc(NC(=O)/C=C/c2ccccc2)c1OC
Reply: > 100 µM (inactive)

Task item: Ok, now CC(C)c1cc2c(O)c(c1)Cc1cc(C(C)C)cc(c1O)Cc1cc(C(C)C)cc(c1O)Cc1cc(C(C)C)cc(c1O)C2
Reply: > 100 µM (inactive)

Task item: Then Cc1ccc(NC(=O)/C(=N/NC(=O)CC#N)C2C(=O)N(c3ccccc3)N=C2N)cc1C (stereo not given) ?
Reply: > 100 µM (inactive)

Task item: Also need COc1ccc(/C=C2\C[C@H]3[C@@H]4CCC5=C/C(=N/O)CC[C@]5(C)[C@H]4CC[C@]3(C)\C2=N\O)cc1OC , thanks.
Reply: 17.8 µM (inactive)

Task item: Queued: CCC(C)C1=C(OC(C)=O)[N+]2([O-])Oc3ccc(-c4c(OC(C)=O)c(OC(C)=O)c(-c5ccc(OC(C)=O)cc5)c(OC(C)=O)c4OC(C)=O)cc3OC2(C(C)CC)C(=O)N1OC(C)=O (stereo not given)
Reply: 10.5 µM (inactive)

Task item: Quick one: Brc1ccc(C2CC3(c4ccccc4)ON=C(c4ccccc4)N3c3ccccc3S2)cc1 (stereo not given)
Reply: > 100 µM (inactive)

Task item: Can you check N=C(N)NS(=O)(=O)c1ccc(Nc2c3ccccc3nc3ccc(C(=O)Nc4ccc(S(N)(=O)=O)cc4)cc23)cc1 next?
Reply: > 100 µM (inactive)

Task item: Then this compound: CC(=O)NNc1nc(C)c(C(=O)NNC(=O)C(=O)Nc2c([N+](=O)[O-])ccc(C)c2C)s1
Reply: > 100 µM (inactive)

Task item: Would you mind doing Cn1nc(-c2cccc(-c3nn(C)/c(=N\CCO)s3)n2)s/c1=N/CCO as well?
Reply: > 100 µM (inactive)

Task item: And for CC(=O)OCC(=O)O[C@@H]1[C@H]2[C@@H](OC(=O)c3ccccc3)[C@@H](C)C[C@]2(O)[C@H](OC(C)=O)[C@@]2(C)C[C@]1(OC(C)=O)C[C@H]1C(=O)C(C)(C)[C@@H](OC(C)=O)[C@@H]12 ?
Reply: > 20 µM (inactive)

Task item: Same read-out for COc1ccc(S(=O)(=O)N(C)CC(=O)O)cc1 ?
Reply: > 100 µM (inactive)

Task item: Then CC(C)(O)C1CC(=O)C(C)(C2C(O)CC3(C)C4CC=C5C(CCC(O)C5(C)C)C4(C)C(=O)CC23C)O1 (stereo not given) ?
Reply: > 100 µM (inactive)

Task item: Subsequent entry: NS(=O)(=O)c1ccc(-c2ccc([As](=O)(O)O)cc2)cc1
Reply: > 100 µM (inactive)

Task item: Try the compound COC1(CC[C@H](C)COC2OC(CO)C(O)C(O)C2O)O[C@H]2C[C@H]3[C@@H]4CC=C5C[C@@H](OC6OC(CO)C(O)C(OC7OC(CO)C(O)C(O)C7O)C6OC6OC(C)C(O)C(O)C6O)CC[C@]5(C)[C@H]4CC[C@]3(C)[C@H]2[C@@H]1C (stereo not given in full)
Reply: 2.32 µM (inactive)

Data origin, for the record: ChEMBL document CHEMBL1201862
